// reported pIC50 for each item listed
Target protein (sequence): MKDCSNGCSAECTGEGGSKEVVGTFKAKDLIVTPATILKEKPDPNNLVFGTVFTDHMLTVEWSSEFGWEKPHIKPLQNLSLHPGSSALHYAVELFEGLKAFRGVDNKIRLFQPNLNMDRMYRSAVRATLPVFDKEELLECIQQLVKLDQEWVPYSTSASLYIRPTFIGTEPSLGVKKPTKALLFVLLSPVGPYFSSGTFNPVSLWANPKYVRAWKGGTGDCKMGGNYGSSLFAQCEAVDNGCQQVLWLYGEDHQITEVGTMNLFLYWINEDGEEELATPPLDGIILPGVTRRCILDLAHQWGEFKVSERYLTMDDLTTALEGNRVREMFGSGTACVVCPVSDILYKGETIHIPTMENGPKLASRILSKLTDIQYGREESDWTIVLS
pIC50: −log10 of the molar value.

Here's what some known entries look like.
Ask: So what does the record say about pIC50 for O=C(N[C@H]1CCC[C@@H](n2c(-c3ccccn3)nc3cc(-n4cncn4)ncc32)C1)c1ccc(Br)s1 [Example 150] ?
Reply: < 5.30

Ask: So what does the record say about pIC50 for O=C(N[C@H]1CCC[C@@H](n2c(-c3ccccn3)nc3cnc(-n4cncn4)cc32)C1)c1ncc(C(F)F)s1 [Example 26] ?
Reply: < 5.30

Ask: So what does the record say about pIC50 for O=C(N[C@H]1CCC[C@@H](n2c(-c3ccccc3F)nc3cnc(-c4ncn(C(F)F)n4)cc32)C1)c1ncc(Cl)s1 [Example 378] ?
Reply: > 6.30

Ask: So what does the record say about pIC50 for Cn1nccc1-c1nc2cnc(-n3nccn3)cc2n1[C@@H]1CCC[C@H](NC(=O)c2ncc(C(F)F)s2)C1 [Example 43] ?
Reply: < 5.30

Ask: So what does the record say about pIC50 for O=C(N[C@H]1CCC[C@@H](n2c(COC(F)(F)F)nc3cnc(-n4nccn4)cc32)C1)c1ncc(Cl)s1 [Example 315] ?
Reply: 6.00 to 6.30

Others:
Ask: So what does the record say about pIC50 for O=C(N[C@H]1CCC[C@@H](n2c(-c3ncccc3F)nc3cnc(-c4ncco4)cc32)C1)c1ccc(Br)s1 [Example 6] ?
Reply: > 6.30

Ask: So what does the record say about pIC50 for CC(C)Cc1nc2cnc(-c3nc(CO)cs3)cc2n1[C@@H]1CCC[C@H](NC(=O)c2ncc(Cl)s2)C1 [Example 330] ?
Reply: > 6.30

###

hBCAT1 (Homo sapiens) IC50 data

Here's what some known entries look like.
Ask: GET /values?readout=IC50&system=hBCAT1 (Homo sapiens)&item= CNC(=O)c1ccc2c(c1)nc(-c1ccccn1)n2C1CC(NC(=O)c2ccc(Br)s2)CN(C)C1 (centres unmarked)
Reply: > 5000 nM

Ask: GET /values?readout=IC50&system=hBCAT1 (Homo sapiens)&item= CNC(=O)c1cc2nc(-c3ccccc3F)n(C3CCCC(NC(=O)c4ncc(Cl)s4)C3O)c2cn1 (centres unmarked)
Reply: < 500 nM

Ask: GET /values?readout=IC50&system=hBCAT1 (Homo sapiens)&item= Cc1nsc(-c2cc3c(cn2)nc(CC(C)C)n3[C@@H]2CCC[C@H](NC(=O)c3ncc(Cl)s3)C2)n1
Reply: 1000 to 5000 nM

Ask: GET /values?readout=IC50&system=hBCAT1 (Homo sapiens)&item= CS(=O)(=O)N1C[C@H](NC(=O)c2ccc(Cl)s2)C[C@H](n2c(-c3ccccc3F)nc3cnc(-c4nc[nH]n4)cc32)C1
Reply: < 500 nM

Ask: GET /values?readout=IC50&system=hBCAT1 (Homo sapiens)&item= CC(C)Cc1nc2cnc(-n3ncc(C(C)O)n3)cc2n1[C@@H]1CCC[C@H](NC(=O)c2ncc(Cl)s2)C1 (some centres unmarked)
Reply: 500 to 1000 nM

Ask: GET /values?readout=IC50&system=hBCAT1 (Homo sapiens)&item= O=C(N[C@H]1CCC[C@@H](n2c(COC(F)(F)F)nc3cnc(-c4nc[nH]n4)cc32)C1)c1ncc(Cl)s1
Reply: < 500 nM

Ask: GET /values?readout=IC50&system=hBCAT1 (Homo sapiens)&item= C#Cc1cnc(C(=O)N[C@H]2CCC[C@@H](n3c(-c4ncccc4F)nc4cnc(-n5nccn5)cc43)C2)s1
Reply: < 500 nM

Ask: GET /values?readout=IC50&system=hBCAT1 (Homo sapiens)&item= O=C(N[C@H]1C[C@H](O)C[C@@H](n2c(-c3ccccc3F)nc3cnc(-c4ccccn4)cc32)C1)c1ncc(Cl)s1 (single isomer, unassigned)
Reply: < 500 nM

Ask: GET /values?readout=IC50&system=hBCAT1 (Homo sapiens)&item= O=C(N[C@H]1CCC[C@@H](n2c(-c3ccccc3F)nc3cnc(N4CCC(O)C4)cc32)C1)c1ncc(Cl)s1 (some centres unmarked)
Reply: > 5000 nM

Ask: GET /values?readout=IC50&system=hBCAT1 (Homo sapiens)&item= CC(C)(O)c1nc2cnc(-n3cncn3)cc2n1[C@@H]1CCC[C@H](NC(=O)c2ccc(Br)s2)C1
Reply: > 5000 nM

Others:
Ask: GET /values?readout=IC50&system=hBCAT1 (Homo sapiens)&item= O=C(N[C@H]1CCC[C@@H](n2c(-c3ncccc3F)nc3cnc(-n4cncn4)cc32)C1)c1ccc(Br)s1
Reply: < 500 nM

Ask: GET /values?readout=IC50&system=hBCAT1 (Homo sapiens)&item= Cc1cnn(-c2cc3c(cn2)nc(-c2ccccc2F)n3[C@@H]2CCC[C@H](NC(=O)c3ncc(Cl)s3)[C@H]2O)n1
Reply: < 500 nM

Ask: GET /values?readout=IC50&system=hBCAT1 (Homo sapiens)&item= O=C(N[C@H]1CCC[C@@H](n2c(-c3ccccc3F)nc3cnc(-c4c(F)cccc4F)cc32)C1)c1ncc(Cl)s1
Reply: > 5000 nM

Ask: GET /values?readout=IC50&system=hBCAT1 (Homo sapiens)&item= O=C(N[C@H]1CCC[C@@H](n2c(-c3ccccc3F)nc3cc(-n4ccnn4)ncc32)C1)c1ncc(C(F)F)s1
Reply: 1000 to 5000 nM
